Molecular target: GSK3B (Homo sapiens)
Construct: made in house
Sequence (P49841 whole entry, species assumed): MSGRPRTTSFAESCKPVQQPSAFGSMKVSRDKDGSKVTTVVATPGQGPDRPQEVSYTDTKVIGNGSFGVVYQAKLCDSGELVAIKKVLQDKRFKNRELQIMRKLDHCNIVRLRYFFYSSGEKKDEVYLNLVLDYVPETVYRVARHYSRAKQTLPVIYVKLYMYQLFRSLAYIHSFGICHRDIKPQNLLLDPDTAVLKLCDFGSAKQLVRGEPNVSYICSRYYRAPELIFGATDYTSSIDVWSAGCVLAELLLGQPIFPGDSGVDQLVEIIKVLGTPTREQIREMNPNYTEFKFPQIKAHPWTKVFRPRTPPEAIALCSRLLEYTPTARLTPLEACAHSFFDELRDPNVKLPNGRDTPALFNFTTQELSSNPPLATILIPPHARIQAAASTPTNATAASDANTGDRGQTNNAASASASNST
Assay: Liability panel screening by DSF: GSK3B
Assay type: binding
Details: DSF, 20 µM, n=2; read-out: Mean ΔTM GSK3B
quantity.name: ΔTm at 20 µM (°C)
Numbers only, in °C.

1) Cc1c(N2C(=O)C3C(O)CCN3C2=O)ccc(C#N)c1Cl (stereo not shown)
-0.71

Batch request: ΔTm at 20 µM for each of the following compounds.
1. C[C@H]1C[C@H]2[C@@H]3CCC4=CC(=O)C=C[C@]4(C)[C@@]3(Cl)[C@@H](O)C[C@]2(C)[C@@]1(O)C(=O)CO
2. CC/C(=C(/CC)c1ccc(O)cc1)c1ccc(O)cc1
3. C#C[C@]1(O)CC[C@H]2[C@@H]3CCc4cc(O)ccc4[C@H]3CC[C@@]21C

[out]
-0.75
-3.54
0.23

* * *

Molecular target: BRPF1 (Homo sapiens)
Construct: This panel comprised ten highly ligandable kinases and bromodomains; made in house
Sequence (P55201 628-732 limits assumed, species assumed): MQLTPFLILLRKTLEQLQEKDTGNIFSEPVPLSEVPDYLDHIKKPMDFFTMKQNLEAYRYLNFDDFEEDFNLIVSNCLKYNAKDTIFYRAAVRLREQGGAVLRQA
Assay: Liability panel screening by DSF: BRPF1
Format: binding
Settings: DSF, 20 µM, n=2; read-out: Mean ΔTM BRPF1
quantity.name: ΔTm at 20 µM (°C)
One number for each entry, in °C.

Sample answers from the record:
1. CC/C(=C(/CC)c1ccc(O)cc1)c1ccc(O)cc1
-8.49
2. N#Cc1ccc([C@H]2CCCC[C@H]2O)cc1C(F)(F)F
-0.66
3. CCCC1O[C@@H]2C[C@H]3[C@@H]4CCC5=CC(=O)C=C[C@]5(C)[C@H]4[C@@H](O)C[C@]3(C)[C@]2(C(=O)CO)O1 (stereo partly drawn) [Budesonide]
-1.04

Dear colleague, could you please provide ΔTm at 20 µM for the molecules listed below?
1. CC(C)(c1ccc(O)cc1)c1ccc(O)cc1
2. C[C@@H]1Cc2c([nH]c3ccccc23)[C@@H](c2c(F)cc(/C=C/C(=O)O)cc2F)N1CC(C)(C)F
3. Cc1ccc2c(NC[C@](O)(CC(C)(C)c3cc(F)cc4c3OCC4)C(F)(F)F)cccc2n1
4. COc1cccc([C@@H](Oc2ccc3c(cnn3-c3ccc(F)cc3)c2)[C@H](C)NC(=O)C(F)(F)F)c1
5. CCN(CC)c1ccc(/C=N/NC(=O)c2ccc(O)cc2)cc1

[out]
1. -2.21
2. -4.53
3. 0.63
4. -0.79
5. 1.09

Go through the list and state ΔTm at 20 µM for each entry.
1. CN(C)CCOc1ccc(/C(=C(/CCCO)c2ccccc2)c2ccc(O)cc2)cc1
2. CC(=O)O[C@]1(C(C)=O)CC[C@H]2[C@@H]3CCC4=CC(=O)CCC4=C3[C@@H](c3ccc(N(C)C)cc3)C[C@@]21C [Ulipristal acetate]

[out]
1: -1.74; 2: -2.65

Go through the items and report each one's ΔTm at 20 µM.
1. C[C@H]1C[C@H]2[C@@H]3CCC4=CC(=O)C=C[C@]4(C)[C@@]3(Cl)[C@@H](O)C[C@]2(C)[C@@]1(O)C(=O)CO
2. CC/C(=C(/c1ccc(/C=C/C(=O)O)cc1)c1ccc2[nH]ncc2c1)c1ccc(F)cc1Cl
3. CC(C)c1ccc(/C=N/NC(=O)c2ccc(O)cc2)cc1

[out]
1: -0.66; 2: 0; 3: 0.6

Please go through the list and note ΔTm at 20 µM for each molecule.
1. Oc1ccc(-c2c(-c3ccccc3)nn3c(C(F)(F)F)cc(C(F)(F)F)nc23)cc1
2. CC(=O)OCC(=O)[C@@]1(O)CC[C@H]2[C@@H]3CCC4=CC(=O)CC[C@]4(C)[C@@]3(F)[C@@H](O)C[C@@]21C [Fludrocortisone acetate]

[out]
[-1.38, -0.43]

* * *

Test system: NF-κB activity in HEK293 NF-κB reporter cells
Assay: NF-kB activity assay (GFP reporter, ionomycin/PMA)
Type: cell-based
Conditions: 1 µM, 1,5 h, n=3
Description: Fig. 6 Application of the NR3 CG set. After 24 h, cells were incubated with the test compounds solubilized with 0.1% DMSO in the same medium without puromycin. After 4 h incubation, ionomycin (100 ng/mL) and phorbol-12-myristat-13-acetate (PMA, 10 ng/mL) was added, and the cells were imaged for confluence and GFP expression every 90 min. over 24 h using a Tecan SPARK Cyto (Tecan). The number of GFP expressing cells was normalized to confluence in each sample. […]
Kindly state Mean NFκB response for each of the entries shown.

Parameter requested: Mean NFκB response. Apply to each item below.
1. COc1cccc([C@@H](Oc2ccc3c(cnn3-c3ccc(F)cc3)c2)[C@H](C)NC(=O)C(F)(F)F)c1
2. Cc1ccc2c(NC[C@](O)(CC(C)(C)c3cc(F)cc4c3OCC4)C(F)(F)F)cccc2n1
3. C[C@]12CCC(=O)C=C1CC[C@@H]1[C@@H]2[C@@H](O)C[C@]2(C=O)[C@@H](C(=O)CO)CC[C@@H]12
4. CC(=O)O[C@]1(C(C)=O)CC[C@H]2[C@@H]3C=C(Cl)C4=CC(=O)[C@@H]5C[C@@H]5[C@]4(C)[C@H]3CC[C@@]21C [Cyproterone acetate]
5. C[C@@H]1Cc2c([nH]c3ccccc23)[C@@H](c2c(F)cc(/C=C/C(=O)O)cc2F)N1CC(C)(C)F
6. O=C(/C=C/c1ccc(O)cc1)c1ccc(O)cc1O
7. COc1ccc2c(c1)OC(C)(C)C(c1ccccc1)C2c1ccc(OCCN2CCCC2)cc1 (stereo not drawn)

[out]
2076.25 GFP+-cells/confluence ∙ 1000
2171.23 GFP+-cells/confluence ∙ 1000
2799.98 GFP+-cells/confluence ∙ 1000
3306.11 GFP+-cells/confluence ∙ 1000
3183.32 GFP+-cells/confluence ∙ 1000
3578.42 GFP+-cells/confluence ∙ 1000
3755.51 GFP+-cells/confluence ∙ 1000

// each compound listed below needs its Mean NFκB response
1. COC(=O)[C@@H]1CC2=CC(=O)CC[C@]2(C)[C@@]23O[C@@H]2C[C@@]2(C)[C@@H](CC[C@@]24CCC(=O)O4)[C@H]13
2. CC(=O)Nc1ccc(OC[C@](C)(O)C(=O)Nc2ccc([N+](=O)[O-])c(C(F)(F)F)c2)cc1
3. N#CC(Cc1ccc(O)cc1)c1ccc(O)cc1 (stereo not drawn)

[out]
2599.33 GFP+-cells/confluence ∙ 1000
2599.83 GFP+-cells/confluence ∙ 1000
3165.75 GFP+-cells/confluence ∙ 1000

For each entry beneath this line, provide reported Mean NFκB response.
1. C[C@]12CC[C@@H]3c4ccc(O)cc4C[C@@H](CCCCCCCCC[S+]([O-])CCCC(F)(F)C(F)(F)F)[C@H]3[C@@H]1CC[C@@H]2O (stereo partly drawn)
2. Cc1c(-c2ccc(O)cc2)n(Cc2ccc(OCCN3CCCCCC3)cc2)c2ccc(O)cc12
3. O=S(=O)(Cc1ccccc1)Nc1ccc(-c2ccc3c(cnn3-c3ccc(F)cc3)c2)c(C(F)(F)F)c1

[out]
1. 2679.37 GFP+-cells/confluence ∙ 1000
2. 2824.44 GFP+-cells/confluence ∙ 1000
3. 2917.80 GFP+-cells/confluence ∙ 1000

Batch lookup, Mean NFκB response per entry.
1. CCCc1c(-c2ccc(O)cc2)nn(-c2ccc(O)cc2)c1-c1ccc(O)cc1
2. Oc1ccc(-c2c(-c3ccccc3)nn3c(C(F)(F)F)cc(C(F)(F)F)nc23)cc1

[out]
1: 3210.54 GFP+-cells/confluence ∙ 1000; 2: 2680.27 GFP+-cells/confluence ∙ 1000

* * *

Target: TRIM24 (Homo sapiens)
Construct: This panel comprised ten highly ligandable kinases and bromodomains; made in house
Sequence (O15164 899-1004 limits assumed, species assumed): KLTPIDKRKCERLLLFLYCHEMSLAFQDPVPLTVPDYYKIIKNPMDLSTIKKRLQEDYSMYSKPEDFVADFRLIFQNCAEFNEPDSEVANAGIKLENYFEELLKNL
Assay: Liability panel screening by DSF: TRIM24
Format: binding
Conditions: DSF, 20 µM, n=2; read-out: Mean ΔTM TRIM24
Method: Reference ligands are listed in the methods section. In-house produced recombinantly expressed proteins[62] of the liability panel targets were diluted in a buffer containing 10 mM HEPES (pH 7.5) and 500 mM NaCl to a concentration of 2 µM. SYPRO Orange (Invitrogen, Carlsbad, California, USA; #S6650) as a fluorescence probe was added at a 1:1000 dilution to the proteins. […]
For each of the compounds below, state its ΔTm at 20 µM.

Solved cases below.
1) N#Cc1ccc(N2N=C3c4ccc(C(=O)O)cc4CC[C@@H]3[C@@H]2C2CCCC2)cc1Cl [PF-03882845]
1.43 °C
2) Cc1c(-c2ccc(O)cc2)n(Cc2ccc(OCCN3CCCCCC3)cc2)c2ccc(O)cc12 [Bazedoxifene]
-2.05 °C
3) Cc1ccc2c(NC[C@](O)(CC(C)(C)c3cc(F)cc4c3OCC4)C(F)(F)F)cccc2n1 [Mapracorat]
-0.84 °C

# batch: return ΔTm at 20 µM for each of the 4 compounds below
1. N#Cc1ccc([C@H]2CCCC[C@H]2O)cc1C(F)(F)F [PF-998425]
2. COC(=O)[C@@H]1CC2=CC(=O)CC[C@]2(C)[C@@]23O[C@@H]2C[C@@]2(C)[C@@H](CC[C@@]24CCC(=O)O4)[C@H]13 [Eplerenone]
3. N#CC(Cc1ccc(O)cc1)c1ccc(O)cc1 (stereo not shown) [Diarylpropionitrile]
4. CCC(=O)O[C@]1(C(=O)SCF)[C@H](C)C[C@H]2[C@@H]3C[C@H](F)C4=CC(=O)C=C[C@]4(C)[C@@]3(F)[C@@H](O)C[C@@]21C [Fluticasone propionate]

[out]
1. -1.04 °C
2. -0.62 °C
3. 0.03 °C
4. -0.08 °C

Every entry's value here was drawn from paper PMC11790914.
